Assay: Pharmacokinetics (oral bioavailability) following oral administration in beagle dogs
Format: in vivo
Conditions used: oral, formulation 1
*1 amine or outer side, *2 acyl side, *3 side chain or, on linkers, in order; H or OH if unused. Where a SMILES comes first, the peptide text is derived from it. Bridges are numbered along the chain shown (N, C = ends). [ ]: non-standard residue; d: D form. The star is where a group is joined. pTerphenylCO(4''-OnC5H11) = CCCCCOc1ccc(-c2ccc(-c3ccc(C(=O)*)cc3)cc2)cc1; Orn(4R-OH,5R-OH) = O=C([C@H](C[C@@H](O)[C@@H](O)N[*:3])N[*:1])[*:2]; hTyr(3S-OH,4S-OH) = N[C@H](C(=O)O)[C@H](O)[C@@H](O)c1ccc(O)cc1; Pro(3S-OH,4S-Me) = C[C@H]1CN[C@H](C(=O)O)[C@H]1O; Hyp = O=C(O)[C@@H]1C[C@@H](O)CN1
Exercise: state measured Improvement (ratio of % oral bioavailability to saline) for each of the molecules provided.
Numbers only.

Some molecules with known Improvement (ratio of % oral bioavailability to saline) results, for comparison:
Molecule	Value reported
CC(=O)[O-].CCCCCOc1ccc(-c2ccc(-c3ccc(C(=O)NC4CC(O)C(OCC[N+](C)(C)C)NC(=O)C5C(O)C(C)CN5C(=O)C(C(C)O)NC(=O)C(C(O)C(O)c5ccc(O)cc5)NC(=O)C5CC(O)CN5C(=O)C(C(C)O)NC4=O)cc3)cc2)cc1 (stereo not drawn)	2.3
CCCCCOc1ccc(-c2ccc(-c3ccc(C(=O)NC4CC(O)C(OCCOCCO)NC(=O)C5C(O)C(C)CN5C(=O)C(C(C)O)NC(=O)C(C(O)C(O)c5ccc(O)cc5)NC(=O)C5CC(O)CN5C(=O)C(C(C)O)NC4=O)cc3)cc2)cc1 (stereo not drawn)	1.3

Next up:
Exercise: Need Improvement (ratio of % oral bioavailability to saline), item CCCCCOc1ccc(-c2ccc(-c3ccc(C(=O)N[C@H]4C[C@@H](O)[C@@H](O)NC(=O)[C@@H]5[C@@H](O)[C@@H](C)CN5C(=O)[C@H]([C@@H](C)O)NC(=O)[C@H]([C@H](O)[C@@H](O)c5ccc(O)cc5)NC(=O)[C@@H]5C[C@@H](O)CN5C(=O)[C@H]([C@@H](C)O)NC4=O)cc3)cc2)cc1 [Anidulafungin, anidulafungin, reference compound] ({pTerphenylCO(4''-OnC5H11)}-[Orn(4R-OH,5R-OH)]T[Hyp][hTyr(3S-OH,4S-OH)]T[Pro(3S-OH,4S-Me)]; lactam 1-C)
Key: 1.8

* * *

Assay: Solubility in aqueous media of varying pH
Format: physicochemical
Conditions used: aqueous buffer; Acetate buffer (0.01M, pH 5.5), ambient temperature; compound 22 as acetate salt, salt free equivalent; read-out: Solubility
*1 amine or outer side, *2 acyl side, *3 side chain or, on linkers, in order; H or OH if unused. Where a SMILES comes first, the peptide text is derived from it. Bridges are numbered along the chain shown (N, C = ends). [ ]: non-standard residue; d: D form. The star is where a group is joined. pTerphenylCO(4''-OnC5H11) = CCCCCOc1ccc(-c2ccc(-c3ccc(C(=O)*)cc3)cc2)cc1; Orn(4R-OH,5R-OH) = O=C([C@H](C[C@@H](O)[C@@H](O)N[*:3])N[*:1])[*:2]; hTyr(3S-OH,4S-OH) = N[C@H](C(=O)O)[C@H](O)[C@@H](O)c1ccc(O)cc1; Pro(3S-OH,4S-Me) = C[C@H]1CN[C@H](C(=O)O)[C@H]1O; Hyp = O=C(O)[C@@H]1C[C@@H](O)CN1
Metric: solubility

Exercise: Need solubility, item CCCCCOc1ccc(-c2ccc(-c3ccc(C(=O)N[C@H]4C[C@@H](O)[C@@H](O)NC(=O)[C@@H]5[C@@H](O)[C@@H](C)CN5C(=O)[C@H]([C@@H](C)O)NC(=O)[C@H]([C@H](O)[C@@H](O)c5ccc(O)cc5)NC(=O)[C@@H]5C[C@@H](O)CN5C(=O)[C@H]([C@@H](C)O)NC4=O)cc3)cc2)cc1 [Anidulafungin, anidulafungin, reference compound] ({pTerphenylCO(4''-OnC5H11)}-[Orn(4R-OH,5R-OH)]T[Hyp][hTyr(3S-OH,4S-OH)]T[Pro(3S-OH,4S-Me)]; lactam 1-C)
Key: < 10 µg/mL

* * *

Assay: Pharmacokinetics following intravenous administration in beagle dogs
Format: in vivo
Conditions used: 1.4 mg/kg IV slow bolus
Metric: Cmax (ng/mL)
One number for each entry, in ng/mL.

Compound	Value reported
CCCCCOc1ccc(-c2ccc(-c3ccc(C(=O)NC4CC(O)C(OCCOCCN)NC(=O)C5C(O)C(C)CN5C(=O)C(C(C)O)NC(=O)C(C(O)C(O)c5ccc(O)cc5)NC(=O)C5CC(O)CN5C(=O)C(C(C)O)NC4=O)cc3)cc2)cc1 (centres unmarked)	4080

Next up:
Exercise: Need Cmax, item CCCCCOc1ccc(-c2ccc(-c3ccc(C(=O)NC4CC(O)C(NCCNCCO)NC(=O)C5C(O)C(C)CN5C(=O)C(C(C)O)NC(=O)C(C(O)C(O)c5ccc(O)cc5)NC(=O)C5CC(O)CN5C(=O)C(C(C)O)NC4=O)cc3)cc2)cc1 (centres unmarked)
Key: 3630

* * *

Assay: Circulating half-life in rat
Type: in vivo
Conditions used: in vivo, assays conducted by applicant, read-out: Half-life (converted)
*1 amine or outer side, *2 acyl side, *3 side chain or, on linkers, in order; H or OH if unused. Where a SMILES comes first, the peptide text is derived from it. Bridges are numbered along the chain shown (N, C = ends). [ ]: non-standard residue; d: D form. The star is where a group is joined. pTerphenylCO(4''-OnC5H11) = CCCCCOc1ccc(-c2ccc(-c3ccc(C(=O)*)cc3)cc2)cc1; Orn(4R-OH,5R-OH) = O=C([C@H](C[C@@H](O)[C@@H](O)N[*:3])N[*:1])[*:2]; hTyr(3S-OH,4S-OH) = N[C@H](C(=O)O)[C@H](O)[C@@H](O)c1ccc(O)cc1; Pro(3S-OH,4S-Me) = C[C@H]1CN[C@H](C(=O)O)[C@H]1O; Hyp = O=C(O)[C@@H]1C[C@@H](O)CN1
Metric: Half-life
Field note: include the unit after the figure.

Exercise: Need Half-life, item CCCCCOc1ccc(-c2ccc(-c3ccc(C(=O)N[C@H]4C[C@@H](O)[C@@H](O)NC(=O)[C@@H]5[C@@H](O)[C@@H](C)CN5C(=O)[C@H]([C@@H](C)O)NC(=O)[C@H]([C@H](O)[C@@H](O)c5ccc(O)cc5)NC(=O)[C@@H]5C[C@@H](O)CN5C(=O)[C@H]([C@@H](C)O)NC4=O)cc3)cc2)cc1 [Anidulafungin, anidulafungin, reference compound] ({pTerphenylCO(4''-OnC5H11)}-[Orn(4R-OH,5R-OH)]T[Hyp][hTyr(3S-OH,4S-OH)]T[Pro(3S-OH,4S-Me)]; lactam 1-C)
Key: 22 h

* * *

Assay: Solubility in aqueous media of varying pH
Format: physicochemical
Conditions used: aqueous buffer; Acetate buffer (0.01M, pH 4.5), ambient temperature; compound 22 as acetate salt, salt free equivalent; read-out: Solubility
*1 amine or outer side, *2 acyl side, *3 side chain or, on linkers, in order; H or OH if unused. Where a SMILES comes first, the peptide text is derived from it. Bridges are numbered along the chain shown (N, C = ends). [ ]: non-standard residue; d: D form. The star is where a group is joined. pTerphenylCO(4''-OnC5H11) = CCCCCOc1ccc(-c2ccc(-c3ccc(C(=O)*)cc3)cc2)cc1; Orn(4R-OH,5R-OH) = O=C([C@H](C[C@@H](O)[C@@H](O)N[*:3])N[*:1])[*:2]; hTyr(3S-OH,4S-OH) = N[C@H](C(=O)O)[C@H](O)[C@@H](O)c1ccc(O)cc1; Pro(3S-OH,4S-Me) = C[C@H]1CN[C@H](C(=O)O)[C@H]1O; Hyp = O=C(O)[C@@H]1C[C@@H](O)CN1
Metric: solubility

Exercise: Need solubility, item CCCCCOc1ccc(-c2ccc(-c3ccc(C(=O)N[C@H]4C[C@@H](O)[C@@H](O)NC(=O)[C@@H]5[C@@H](O)[C@@H](C)CN5C(=O)[C@H]([C@@H](C)O)NC(=O)[C@H]([C@H](O)[C@@H](O)c5ccc(O)cc5)NC(=O)[C@@H]5C[C@@H](O)CN5C(=O)[C@H]([C@@H](C)O)NC4=O)cc3)cc2)cc1 [Anidulafungin, anidulafungin, reference compound] ({pTerphenylCO(4''-OnC5H11)}-[Orn(4R-OH,5R-OH)]T[Hyp][hTyr(3S-OH,4S-OH)]T[Pro(3S-OH,4S-Me)]; lactam 1-C)
Key: < 10 µg/mL

* * *

Assay: Solubility in aqueous media of varying pH
Type: physicochemical
Conditions used: Sterile Water for injection, ambient temperature; compound 22 as acetate salt, salt free equivalent; read-out: Solubility
*1 amine or outer side, *2 acyl side, *3 side chain or, on linkers, in order; H or OH if unused. Where a SMILES comes first, the peptide text is derived from it. Bridges are numbered along the chain shown (N, C = ends). [ ]: non-standard residue; d: D form. The star is where a group is joined. pTerphenylCO(4''-OnC5H11) = CCCCCOc1ccc(-c2ccc(-c3ccc(C(=O)*)cc3)cc2)cc1; Orn(4R-OH,5R-OH) = O=C([C@H](C[C@@H](O)[C@@H](O)N[*:3])N[*:1])[*:2]; hTyr(3S-OH,4S-OH) = N[C@H](C(=O)O)[C@H](O)[C@@H](O)c1ccc(O)cc1; Pro(3S-OH,4S-Me) = C[C@H]1CN[C@H](C(=O)O)[C@H]1O; Hyp = O=C(O)[C@@H]1C[C@@H](O)CN1
Metric: solubility

Exercise: Need solubility, item CCCCCOc1ccc(-c2ccc(-c3ccc(C(=O)N[C@H]4C[C@@H](O)[C@@H](O)NC(=O)[C@@H]5[C@@H](O)[C@@H](C)CN5C(=O)[C@H]([C@@H](C)O)NC(=O)[C@H]([C@H](O)[C@@H](O)c5ccc(O)cc5)NC(=O)[C@@H]5C[C@@H](O)CN5C(=O)[C@H]([C@@H](C)O)NC4=O)cc3)cc2)cc1 [Anidulafungin, anidulafungin, reference compound] ({pTerphenylCO(4''-OnC5H11)}-[Orn(4R-OH,5R-OH)]T[Hyp][hTyr(3S-OH,4S-OH)]T[Pro(3S-OH,4S-Me)]; lactam 1-C)
Key: < 10 µg/mL
